These measurements were taken from paper PMC6585414.

The substances listed here are annotated with their Serum level of UA.
Assay: Serum biochemical factors after intraperitoneal injection
Assay type: in vivo, mouse
Conditions: 50 μg/mouse ip, blood 48 h after the injection; mean ± standard deviation
No end group written: not given here.
Hi! Could you send only the number? It should be in mg/dL, unit omitted.

Substance: FFHHIFRGIVHVGKTKHRLVTG-NH2 [I16K-piscidin-1]
Measurement Unit: mg/dL
Serum level of UA: 0.41

Record request: Serum level of UA value, item FFHHIFRGKVHVGKTIHRLVTG-NH2 [I9K-piscidin-1]
0.43

Could you tell me which Serum level of UA is on file for FFHHIFRGIVHVGKTIHRLVTG-NH2 [Piscidin-1, reference compound] ?
0.45

For the substance FFHHIFRGAVHVGKTIHRLVTG-NH2 [I9A-piscidin-1] , what Serum level of UA is on record?
0.42

What measured Serum level of UA goes with FFHHIFRGIVHVGKTAHRLVTG-NH2 [I16A-piscidin-1] ?
0.39

====

Test: Serum biochemical factors after intraperitoneal injection
Type: in vivo, mouse
Details: 100 μg/mouse ip, blood 48 h after the injection; mean ± standard deviation
No end group written: not given here.
Endpoint: Serum level of GPT (U/L)
Express your answer in U/L, writing the number without its unit.

Substance: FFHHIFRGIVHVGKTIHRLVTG-NH2 [Piscidin-1, reference compound]
Endpoint: Serum level of GPT
Measurement Unit: U/L
Experimental Result: 4.62

Please give the measured Serum level of GPT for this substance: FFHHIFRGIVHVGKTAHRLVTG-NH2 [I16A-piscidin-1]
7.33

Returns the measured Serum level of GPT for the input substance. Input: FFHHIFRGKVHVGKTIHRLVTG-NH2 [I9K-piscidin-1]
6.86

Given FFHHIFRGAVHVGKTIHRLVTG-NH2 [I9A-piscidin-1] , state its recorded Serum level of GPT.
7.17

====

Assay: Serum biochemical factors after intraperitoneal injection
Format: in vivo, mouse
Settings: 100 μg/mouse ip, blood 48 h after the injection; mean ± standard deviation
No end group written: not given here.
Measured Serum level of GOT, listed per entry for reference.
Could you give me the number in U/L? Just the number is fine.

Some substances with known Serum level of GOT results, for comparison:
Substance: FFHHIFRGAVHVGKTIHRLVTG-NH2 [I9A-piscidin-1]
Measurement Unit: U/L
Serum level of GOT: 10.86
--
Substance: FFHHIFRGIVHVGKTAHRLVTG-NH2 [I16A-piscidin-1]
Measurement Unit: U/L
Serum level of GOT: 11.08
--
Substance: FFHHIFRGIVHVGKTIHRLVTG-NH2 [Piscidin-1, reference compound]
Measurement Unit: U/L
Serum level of GOT: 10.64
--
Substance: FFHHIFRGIVHVGKTKHRLVTG-NH2 [I16K-piscidin-1]
Measurement Unit: U/L
Serum level of GOT: 8.53

Next item in the queue.
Form field: reported Serum level of GOT of FFHHIFRGKVHVGKTIHRLVTG-NH2 [I9K-piscidin-1]
10.32
